Target: APE1 (Homo sapiens)
Construct: made in house
Sequence (P27695 whole entry): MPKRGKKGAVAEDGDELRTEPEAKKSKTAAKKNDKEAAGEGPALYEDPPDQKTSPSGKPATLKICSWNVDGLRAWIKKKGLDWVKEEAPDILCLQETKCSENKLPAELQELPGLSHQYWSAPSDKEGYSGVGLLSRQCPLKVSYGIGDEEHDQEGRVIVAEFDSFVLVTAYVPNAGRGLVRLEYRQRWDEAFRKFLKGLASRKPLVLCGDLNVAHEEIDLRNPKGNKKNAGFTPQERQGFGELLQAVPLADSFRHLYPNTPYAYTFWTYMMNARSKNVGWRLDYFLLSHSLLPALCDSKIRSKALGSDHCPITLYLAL
Test: qHTS fluorogenic AP site incision assay (TAMRA/BHQ-2 red substrate, 1536-well)
Format: biochemical
Conditions: 50 nM substrate, 0.75 nM APE1; read-out: qHTS IC50 (primary screen, APE1)
Criterion: IC50 strictly less than 500 nM. Met: 1 (yes). Not met: 0 (no).

These recorded examples may help you get a feel for the data.
O=C(O)C1=CC(=C(c2ccc(O)c(C(=O)O)c2)c2ccc(O)c(C(=O)O)c2)C=CC1=O = 1 (yes)
Cc1nc(N=Nc2cc(S(=O)(=O)O)c3cc([N+](=O)[O-])cc(S(=O)(=O)O)c3c2)c(COP(=O)(O)O)c(C=O)c1O [PPNDS tetrasodium] = 0 (no)
O=C1c2c(O)ccc(O)c2C(=O)c2c(NCCNCCO)ccc(NCCNCCO)c21 = 0 (no)
CC(=O)OCC1=C(C(=O)O)N2C(=O)[C@@H](NC(=O)CSc3ccncc3)[C@H]2SC1 [cephapirin sodium] = 0 (no)
O=c1c(O)c(-c2cc(O)c(O)c(O)c2)oc2cc(O)cc(O)c12 = 1 (yes)
Nc1c(S(=O)(=O)O)cc(Nc2ccc(Nc3nc(Cl)nc(Nc4cccc(S(=O)(=O)O)c4)n3)c(S(=O)(=O)O)c2)c2c1C(=O)c1ccccc1C2=O = 1 (yes)

// query Check if IC50 falls below 500 nM for CO/N=C(\C(=O)N[C@@H]1C(=O)N2C(C(=O)O)=C(CSc3nc(=O)c(=O)[nH]n3C)CS[C@H]12)c1csc(N)n1 [ceftriaxone sodium] .
// result 0 (no)

// query Check if IC50 falls below 500 nM for C=C/C(C)=C/[C@@]1(C)SC(=O)C(C)=C1O .
// result 0 (no)

// query Check if IC50 falls below 500 nM for N#C/C(=C\c1ccc(O)c(O)c1)C(=O)c1ccc(O)c(O)c1 .
// result 1 (yes)

---

Molecular target: unlabeled double-stranded DNA substrate
Test: ThO dye-displacement assay (DNA binding)
Settings: 50 nM DNA, 250 nM ThO
As shown below, each of these compounds has a reported pIC50 value.
Conceptually, pIC50 converts a concentration in mol/L into minus its log10.

O=c1c(O)c(-c2cc(O)c(O)c(O)c2)oc2cc(O)cc(O)c12 [myricetin] = 5.46
Nc1c(S(=O)(=O)O)cc(Nc2ccc(Nc3nc(Cl)nc(Nc4cccc(S(=O)(=O)O)c4)n3)c(S(=O)(=O)O)c2)c2c1C(=O)c1ccccc1C2=O [Reactive Blue 2] = 5.05
O=C1c2c(O)ccc(O)c2C(=O)c2c(NCCNCCO)ccc(NCCNCCO)c21 [mitoxantrone] = 6.46
CN(N=O)c1ccc(O)c(O)c1 [methyl 3,4-dephostatin, methyl-3,4-dephostatin] = 4.85
N#C/C(=C\c1ccc(O)c(O)c1)C(=O)c1ccc(O)c(O)c1 [Tyrphostin AG 538] = 4.70

// query // fetch pIC50 given entry O=C(O)C1=CC(=C(c2ccc(O)c(C(=O)O)c2)c2ccc(O)c(C(=O)O)c2)C=CC1=O [aurintricarboxylic acid]
// result 5.89

// query // fetch pIC50 given entry Cc1nc(N=Nc2cc(S(=O)(=O)O)c3cc([N+](=O)[O-])cc(S(=O)(=O)O)c3c2)c(COP(=O)(O)O)c(C=O)c1O [PPNDS tetrasodium]
// result 5.00

// query // fetch pIC50 given entry NC(Cc1cc(O)c(O)cc1O)C(=O)O (racemic) [6-hydroxy-DL DOPA, 6-hydroxy-DL-DOPA]
// result 5.10

Source listed as paper PMC2685009.
